B1: Discoidin, CUB and LCCL domain-containing protein 2 (Homo sapiens), Q96PD2 (parent)
chain: MASRAVVRARRCPQCPQVRAAAAAPAWAALPLSRSLPPCSNSSSFSMPLFLLLLLVLLLLLEDAGAQQGDGCGHTVLGPESGTLTSINYPQTYPNSTVCEWEIRVKMGERVRIKFGDFDIEDSDSCHFNYLRIYNGIGVSRTEIGKYCGLGLQMNHSIESKGNEITLLFMSGIHVSGRGFLASYSVIDKQDLITCLDTASNFLEPEFSKYCPAGCLLPFAEISGTIPHGYRDSSPLCMAGVHAGVVSNTLGGQISVVISKGIPYYESSLANNVTSVVGHLSTSLFTFKTSGCYGTLGMESGVIADPQITASSVLEWTDHTGQENSWKPKKARLKKPGPPWAAFATDEYQWLQIDLNKEKKITGIITTGSTMVEHNYYVSAYRILYSDDGQKWTVYREPGVEQDKIFQGNKDYHQDVRNNFLPPIIARFIRVNPTQWQQKIAMKMELLGCQFIPKGRPPKLTQPPPPRNSNDLKNTTAPPKIAKGRAPKFTQPLQPRSSNEFPAQTEQTTASPDIRNTTVTPNVTKDVALAAVLVPVLVMVLTTLILILVCAWHWRNRKKKTEGTYDLPYWDRAGWWKGMKQFLPAKAVDHEETPVRYSSSEVNHLSPREVTTVLQADSAEYAQPLVGGIVGTLHQRSTFKPEEGKEAGYADLDPYNSPGQEVYHAYAEPLPITGPEYATPIIMDMSGHPTTSVGQPSTSTFKATGNQPPPLVGTYNTLLSRTDSCSSAQAQYDTPKAGKPGLPAPDELVYQVPQSTQEVSGAGRDGECDVFKEIL

Variants of: B1
Settings: with fyn_human FYN
reported property: effect of a mutation on the interaction

[[record]]
variant_designation = "Y750F"
result = "disrupting interaction"

[[record]]
variant_designation = "Y666F"
result = "disrupting interaction"

[[record]]
variant_designation = "Y677F"
result = "disrupting interaction"

[[record]]
variant_designation = "Y655F"
result = "disrupting interaction"

[[record]]
variant_designation = "Y621F"
result = "disrupting interaction"

[[record]]
variant_designation = "Y565F"
result = "disrupting interaction"

[[record]]
variant_designation = "Y732F"
result = "disrupting interaction"

